test-method-notes: Bidirectional transport (Papp, efflux ratio) of antimalarials through Caco-2 cell monolayers
Type: in vitro ADME, human
condition: human, Caco-2; Conc (μM) + inhibitor (μM): 20; first-named drug measured; read-out: Papp Bas-Ap
result-type: Papp B→A at 120 min, 20 µM (×10⁻⁶ cm/s)
Entry rule: numbers only, all in ×10⁻⁶ cm/s.

- compound: "OC(c1cc(C(F)(F)F)nc2c(C(F)(F)F)cccc12)C1CCCCN1 (centres unmarked)"
  result-type: "Papp B→A at 120 min, 20 µM"
  numeric-result: 5.3

Using the record for "C[C@H]1[C@H](N2CCS(=O)(=O)CC2)O[C@@H]2O[C@@]3(C)CC[C@H]4[C@H](C)CC[C@@H]1[C@@]24OO3" , report its Papp B→A at 120 min, 20 µM.
34.7

----------
test-method-notes: Bidirectional transport (Papp, efflux ratio) of antimalarials through Caco-2 cell monolayers
Assay type: in vitro ADME, human
condition: human, Caco-2, Caco-2 monolayers; summary in abstract; methylene blue depending on the direction of transport; read-out: permeability
result-type: Papp at 120 min

// below: answered compounds
- compound: "C[C@H]1[C@H](OC(=O)CCC(=O)O)O[C@@H]2O[C@@]3(C)CC[C@H]4[C@H](C)CC[C@@H]1[C@@]24OO3 [ART, artesunate]"
  Papp at 120 min: "~10 ×10⁻⁶ cm/s"
- compound: "OC(c1cc(C(F)(F)F)nc2c(C(F)(F)F)cccc12)C1CCCCN1 (stereo not shown) [MQ, mefloquine]"
  Papp at 120 min: "~10 ×10⁻⁶ cm/s"
- compound: "C[C@H]1[C@H](N2CCS(=O)(=O)CC2)O[C@@H]2O[C@@]3(C)CC[C@H]4[C@H](C)CC[C@@H]1[C@@]24OO3 [AM, artemisone]"
  Papp at 120 min: "~50 ×10⁻⁶ cm/s"

Using the record for CCN(CC)Cc1cc(Nc2ccnc3cc(Cl)ccc23)ccc1O [AQ, amodiaquine] , report its Papp at 120 min.
~20 ×10⁻⁶ cm/s

----------
test-method-notes: Bidirectional transport (Papp, efflux ratio) of antimalarials through Caco-2 cell monolayers
Format: in vitro ADME, human
condition: human, Caco-2; Conc (μM) + inhibitor (μM): 20; first-named drug measured; read-out: Papp Ap-Bas
result-type: Papp at 120 min, 20 µM (×10⁻⁶ cm/s)
Entry rule: numbers only, all in ×10⁻⁶ cm/s.

- compound: "OC(c1cc(C(F)(F)F)nc2c(C(F)(F)F)cccc12)C1CCCCN1 (centres unmarked) [MQ, mefloquine]"
  result-type: "Papp at 120 min, 20 µM"
  numeric-result: 5.8

Kindly review the next compound as well.
Using the record for C[C@H]1[C@H](N2CCS(=O)(=O)CC2)O[C@@H]2O[C@@]3(C)CC[C@H]4[C@H](C)CC[C@@H]1[C@@]24OO3 [AM, artemisone] , report its Papp at 120 min, 20 µM.
37

----------
test-method-notes: Bidirectional transport (Papp, efflux ratio) of antimalarials through Caco-2 cell monolayers
Format: in vitro ADME, human
condition: human, Caco-2; Conc (μM) + inhibitor (μM): 20; Bas-Ap divided by Ap-Bas
efflux ratio at 120 min, 20 µM listing for selected compounds.
# answer = number (no unit)

- compound: "C[C@H]1[C@H](N2CCS(=O)(=O)CC2)O[C@@H]2O[C@@]3(C)CC[C@H]4[C@H](C)CC[C@@H]1[C@@]24OO3"
  efflux ratio at 120 min, 20 µM: 0.9

Kindly review the next compound as well.
Using the record for OC(c1cc(C(F)(F)F)nc2c(C(F)(F)F)cccc12)C1CCCCN1 (centres unmarked) , report its efflux ratio at 120 min, 20 µM.
0.9
